Test system: Daudi (human B-lymphoblastoid cell from Burkitt's Lymphoma patient)
Assay: Inhibition of cellular proliferation, Daudi cells (CellTiter-Glo)
Format: cell-based
Details: EC50 measured as illustrated in Example 150 (CellTiter-Glo)
property_measured: EC50 (nM)

[
  {
    "molecule": "C[C@@H]1CN(c2ccc(Nc3ncc4cc5n(c4n3)C3(CCCCC3)CNC5=O)nc2)C[C@H](C)N1C [DD]",
    "result_units": "nM",
    "EC50": 546
  },
  {
    "molecule": "CC(C)N1CCN(c2ccc(Nc3ncc4cc5n(c4n3)C3(CCCC3)CNC5=O)nc2)CC1C (centres unmarked) [GGG]",
    "result_units": "nM",
    "EC50": 586
  },
  {
    "molecule": "CC(C)N1CCN(c2ccc(Nc3ncc4cc5n(c4n3)C3(CCCC3)CNC5=O)nc2)CC1 [III]",
    "result_units": "nM",
    "EC50": 775
  },
  {
    "molecule": "C[C@H]1CN(c2ccc(Nc3ncc4cc5n(c4n3)C3(CCCCC3)CNC5=O)nc2)CCN1 [KK]",
    "result_units": "nM",
    "EC50": 147
  },
  {
    "molecule": "CCN(CC)C1CCN(c2ccc(Nc3ncc4cc5n(c4n3)C3(CCCCC3)CNC5=O)nc2)CC1 [CC]",
    "result_units": "nM",
    "EC50": 111
  }
]

1: C[C@@H](O)CN1CCN(c2ccc(Nc3ncc4cc5n(c4n3)C3(CCCC3)CNC5=O)nc2)C[C@@H]1C [VV]
2: CC(C)C[C@@H]1CNC(=O)c2cc3cnc(Nc4ccc(N5CCNCC5)cn4)nc3n21 [WWW]
Endpoint returns the identifier whose EC50 is numerically larger, either 1 or 2 . State the label of the item chosen.
2
